- ASSAYED TARGET: T1, CotA-His6 (Clostridium difficile, UniProt Q186G8 SEQ:1-305)
- T1 sequence: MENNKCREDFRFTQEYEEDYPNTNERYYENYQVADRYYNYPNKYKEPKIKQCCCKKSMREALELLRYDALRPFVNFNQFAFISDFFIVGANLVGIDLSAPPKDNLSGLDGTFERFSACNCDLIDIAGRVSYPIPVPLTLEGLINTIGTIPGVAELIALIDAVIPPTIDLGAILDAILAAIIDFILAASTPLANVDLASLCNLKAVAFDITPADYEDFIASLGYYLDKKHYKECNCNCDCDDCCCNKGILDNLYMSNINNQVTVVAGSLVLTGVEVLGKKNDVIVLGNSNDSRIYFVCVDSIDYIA
- ASSAY METHOD TEXT: SPR; 7.82E-08; protein immobilized
- MEASUREMENT CONTEXT: tags: His6; optimized potential G-quartet
READOUT: pKd
Numbers only, as −log10 of the molar value.

Which pKd value belongs to ACCCGTGGGACTGGGTCGGGTCGGG (ssDNA) [CotA C1.3] ?
7.11
